System: Escherichia coli
Method Notes: Anti-Escherichia coli activity test (paper sheet / dilution multiple method)
Assay type: cell-based
Recorded Metric: inhibitory activity against Escherichia coli (in words)

CC(C)C[C@H]1NC(=O)[C@H]2CCCN2C1=O
weaker
CC[C@@H](C)[C@H]1NC(=O)[C@H]2CCCN2C1=O
weaker
O=C1N[C@H](Cc2ccccc2)C(=O)N2C[C@@H](O)C[C@H]12 (relative stereo) [compound 4, Cyclo(D)-trans-4-OH-Pro-(D)-Phe]
weaker

* * *

Method Notes: Artemia larva lethal test
Type: in vivo
Recorded Conditions: Artemia (brine shrimp) larvae, in vivo; against Artemia larvae
Method: Hatching of Artemia larvae: placing 100 mg of Artemia eggs in a 500 mL beaker, adding 400 mL of artificial sea water, inflating air slowly by using a small inflator pump, hatching at room temperature for 24 h, removing egg shells and the unhatched eggs, and continuously culturing the Artemia larvae for 24 h for later use. […]
Recorded Metric: LC50 at 24 h (µg/mL)
Your answer should be a plain number; it is taken to be in µg/mL.

The recorded LC50 at 24 h for CCCCCC/C=C/CCC1C=CCC(=O)O1 (stereo not shown) [compound 1] is 3.25
